methodDescription: PK of compound of Formula (Ia) after single subcutaneous dose of solution formulations in beagle dogs
Type: in vivo
conditionDescription: male, beagle, dog, plasma, sc, 12 mg/kg, 168 h; mean, n = 3 dogs; SC 12 mg/kg; solution U, 500 mg/mL
measuredAttribute: concentration at 168 h (nM)
// return numeric value only (unit: nM, not printed)

Q: Retrieve concentration at 168 h measured for CC(C)(C#Cc1ccc(-c2ccc(Cl)c3c(NS(C)(=O)=O)nn(CC(F)(F)F)c23)c([C@H](Cc2cc(F)cc(F)c2)NC(=O)Cn2nc(C(F)(F)F)c3c2C(F)(F)[C@@H]2C[C@H]32)n1)S(C)(=O)=O [compound of Formula (Ia)] and print it.
A: 97.5
